Overview of recorded MONOCYTE for various molecules
Species on record: Rattus norvegicus
EXPERIMENTAL_DETAILS: DrugMatrix - Regimen: Daily Repeat
Assay type: toxicity, organism-based, Sprague-Dawley
Design: regimen Daily Repeat, gender Male, age 6-8 weeks
COND: in vivo, po, 1500 mg/kg, 72 h, tissue Blood, route oral GAVAGE, dose level High, time 3 day, vehicle .5 % CMC

MOLECULE: Cc1ccc(S(=O)(=O)NC(=O)NN2CC3CCCC3C2)cc1 (configuration not stated) [GLICLAZIDE]
MONOCYTE, %: 2

MOLECULE: C[C@]1(Cn2ccnn2)[C@H](C(=O)O)N2C(=O)C[C@H]2S1(=O)=O
MONOCYTE, %: 0.33

MOLECULE: NC(=O)c1cnccn1 [PYRAZINAMIDE]
MONOCYTE, %: 1.67

MOLECULE: CNC(=C[N+](=O)[O-])NCCSCc1ccc(CN(C)C)o1
MONOCYTE, %: 1

MOLECULE: Cc1cc(=O)n(-c2ccccc2)n1C [ANTIPYRINE]
MONOCYTE, %: 1.33

MOLECULE: CO[C@H]1/C=C/O[C@@]2(C)Oc3c(C)c(O)c4c(c3C2=O)C2=NC3(CCN(CC(C)C)CC3)NC2=C(NC(=O)/C(C)=C\C=C\[C@H](C)[C@H](O)[C@@H](C)[C@@H](O)[C@@H](C)[C@H](OC(C)=O)[C@@H]1C)C4=O
MONOCYTE, %: 2.67

MOLECULE: O=C(N[C@H](CO)[C@H](O)c1ccc([N+](=O)[O-])cc1)C(Cl)Cl
MONOCYTE, %: 2
